Test system: polyclonal antibody ab6982
Assay Text: Epitope mapping of polyclonal antibody ab6982 against cyclic peptides of Ad5 fiber and hexon (peptide array)
Assay type: binding, rabbits
Measurement Context: cyclic peptides of fiber protein (clusters 1-7)
Please respond with T when measured antibody binding signal ranking from the microarray experiment is strictly beneath 50, and with F in all other cases.

In [3]: df
Out[3]:
                         substance  category
0  186 (NNSFLDPEYW) [compound 186]         F

Quick check: antibody binding signal ranking from the microarray experiment of PEPADVFMIPQYGY [SEQ ID NO: 2029] under 50?
T

Problem: For the substance KKRILEPLGLVEEG [SEQ ID NO: 2034] , is antibody binding signal ranking from the microarray experiment under 50?
F

Determine whether this substance shows antibody binding signal ranking from the microarray experiment lower than 50 (ties excluded): 185 (DPEYWNF) [compound 185]
F

Hello, is antibody binding signal ranking from the microarray experiment of the following substance strictly smaller than 50? 183 (NNSFLDPEYWNFR) [compound 183]
T

Please state whether antibody binding signal ranking from the microarray experiment is below 50 for THSTLDGRWSALTP (REGION 1..14: note = peptide derived from viral capsid protein) [SEQ ID NO: 2042]
F

----------
We begin with a simple list: items and their reported antibody binding signal ranking from the microarray experiment.
Test system: polyclonal antibody ab6982
Assay Text: Epitope mapping of polyclonal antibody ab6982 against cyclic peptides of Ad5 fiber and hexon (peptide array)
Format: binding, rabbits
Measurement Context: cyclic peptides of fiber protein (clusters 1-7)
Excerpt: Polyclonal antibody ab6982 (Abcam) was generated by immunizing rabbits with purified AdV. It reacts with all capsid proteins of Ad5 including hexon, fiber and penton. It was shown that the antibody neutralizes Ad5 infection in a bioassay at 1000 adenovirus 5 particles/ml, a 50% inactivation of the adenovirus can be achieved at a 1/25,000 dilution of the antibody. […]
# respond with the number and nothing more

Reference set (5 entries):
>>> print(df.to_string())
                                  substance  observed
0              205 (YINEIFA) [compound 205]       168
1  LQRGNRQAATADVN (REGION 1..14: note = peptide derived from viral capsid protein) [SEQ ID NO: 2026]       044
2  KGEPVNEADAAALE (REGION 1..14: note = peptide derived from viral capsid protein) [SEQ ID NO: 2003]       153
3  TTSGTTNQSRLLFS (REGION 1..14: note = peptide derived from viral capsid protein) [SEQ ID NO: 1997]       041
4        195 (YINEIFATSSYTF) [compound 195]       055

Determine from records and report antibody binding signal ranking from the microarray experiment for 178 (SWDWSGH) [compound 178]
193

Please look at this substance and report its antibody binding signal ranking from the microarray experiment: LFNIQVKEVTTNDG (REGION 1..14: note = peptide derived from viral capsid protein) [SEQ ID NO: 2047]
172

Identify measured antibody binding signal ranking from the microarray experiment associated with MVPQYGYCGVVTGK [SEQ ID NO: 2035]
070

----------
// reported antibody binding signal ranking from the microarray experiment per item
Tested on: polyclonal antibody ab6982
Assay Text: Epitope mapping of polyclonal antibody ab6982 against cyclic peptides of Ad5 fiber and hexon (peptide array)
Format: binding, rabbits
Measurement Context: cyclic peptides of hexon protein (clusters 8-16)
Keep the answer to the number alone.

See these solved cases before continuing.
In [3]: df
Out[3]:
                            substance  observed
0     288 (DRMYSFFRNF) [compound 288]       072
1     297 (YKDRMYSFFR) [compound 297]       160
2  284 (DIETPDTHISYMP) [compound 284]       064
3  233 (NEDEVDEQAEQQK) [compound 233]        25
4     215 (LEINLEEEDD) [compound 215]        08
5     306 (ANYNIGYQGF) [compound 306]       122

Give antibody binding signal ranking from the microarray experiment for 213 (EINLEEE) [compound 213]
06

Indicate its recorded antibody binding signal ranking from the microarray experiment; the substance in question is 226 (DDNEDEVDEQAEQ) [compound 226]
16

Report antibody binding signal ranking from the microarray experiment for 222 (INLEEEDDDN) [compound 222]
23

Recall and state the measured antibody binding signal ranking from the microarray experiment for 252 (EEDDDNEDEVDEQ) [compound 252] .
148

Please give the documented antibody binding signal ranking from the microarray experiment of 231 (EDEVDEQAEQ) [compound 231]
22

Supply reported antibody binding signal ranking from the microarray experiment belonging to this substance: 246 (DDDNEDEVDE) [compound 246]
087

Give a short answer stating reported antibody binding signal ranking from the microarray experiment for 217 (DEAATALEINLEE) [compound 217] .
11

Tell me its antibody binding signal ranking from the microarray experiment given 237 (INLEEED) [compound 237] as the entry.
032

Provide only the value of recorded antibody binding signal ranking from the microarray experiment for 282 (PKVVLYSEDVDIE) [compound 282]
061

State its antibody binding signal ranking from the microarray experiment for this substance: 305 (NYNIGYQGFY) [compound 305]
106

Return value of antibody binding signal ranking from the microarray experiment for input 277 (DIETPDTHIS) [compound 277] , no commentary.
055

Value source: patent US20250213707A1
